# System: JAK3 (Homo sapiens, UniProt P52333)
# Construct: All four purified enzymes contain only the catalytic domain; His (N); purchased Carna Biosciences, Inc; host or cells: baculovirus expression system
# Sequence (P52333 822-1111 limits assumed): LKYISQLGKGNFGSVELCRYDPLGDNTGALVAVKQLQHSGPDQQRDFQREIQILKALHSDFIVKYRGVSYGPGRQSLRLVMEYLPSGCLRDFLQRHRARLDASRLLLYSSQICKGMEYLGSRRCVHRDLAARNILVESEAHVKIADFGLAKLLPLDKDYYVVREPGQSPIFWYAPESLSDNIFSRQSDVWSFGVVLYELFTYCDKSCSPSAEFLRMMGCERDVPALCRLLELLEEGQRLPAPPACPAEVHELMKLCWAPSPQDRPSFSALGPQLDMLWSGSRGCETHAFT
# Experimental protocol: JAK3 kinase assay (HTRF, inhibition of phosphorylation of a synthetic peptide)
# Type: biochemical
# Test settings: catalytic domain, His-tag; 2 μM ATP (Km); read-out: JAK3 kinase inhibitory activity (EC50)
Parameter: EC50

Known results for compounds:
CC(C(=O)N1CCN(c2ncnc3[nH]ccc23)CC2(CC2)C1)c1ccccc1 (centres unmarked) [Example 275]; 100 to 1000 nM
Cc1nccnc1C(=O)N1CCN(c2ncnc3[nH]ccc23)CC2(CC2)C1 [Example 168]; > 1000 nM
NS(=O)(=O)c1ccc(CC(=O)N2CCN(c3ncnc4[nH]ccc34)CC3(CC3)C2)cc1 [Example 20]; < 100 nM

Go through the items and report each one's EC50.
1. CCCCC(=O)Nc1nc(N2CCCNC3(CC3)C2)c2cc[nH]c2n1 [Example 295]
2. N#Cc1ccc(C(=O)N2CCN(c3ncnc4[nH]ccc34)CC3(CC3)C2)cc1 [Example 62]
3. O=C(Cc1ccccc1Cl)N1CCCN(c2ncnc3[nH]ccc23)CC12CC2 [Example 174]

[reply]
1: > 1000 nM; 2: 100 to 1000 nM; 3: > 1000 nM

Kindly give each listed record's EC50.
1. Cc1cc(C(=O)N2CCCN(c3ncnc4[nH]ccc34)CC23CC3)n[nH]1 [Example 149]
2. O=C(c1cc[nH]n1)N1CCCN(c2ncnc3[nH]ccc23)CC12CC2 [Example 183]
3. Cc1cc(CC(=O)N2CCCN(c3ncnc4[nH]ccc34)CC23CC3)on1 [Example 217]

[reply]
1: > 1000 nM; 2: 100 to 1000 nM; 3: > 1000 nM

Could you report EC50 for every entry in the following list?
1. CN(C)S(=O)(=O)c1ccc(C(=O)N2CCN(c3ncnc4[nH]ccc34)CC3(CC3)C2)cc1 [Example 33]
2. COc1cc(S(N)(=O)=O)ccc1C(=O)N1CCN(c2ncnc3[nH]ccc23)CC2(CC2)C1 [Example 52]
3. Cc1ncsc1CC(=O)N1CCN(c2ncnc3[nH]ccc23)CC2(CC2)C1 [Example 246]

[reply]
["100 to 1000 nM", "100 to 1000 nM", "> 1000 nM"]

For every item below, please supply its EC50.
1. S=C(Nc1ccccc1)N1CCCN(c2ncnc3[nH]ccc23)CC12CC2 [Example 91]
2. c1nc(N2CCNC3(CC2)CC3)c2cc[nH]c2n1 [Example 291]
3. N#CCOc1cccc(CC(=O)N2CCN(c3ncnc4[nH]ccc34)CC3(CC3)C2)c1 [Example 17]
4. COc1cc(C(=O)N2CCN(c3ncnc4[nH]ccc34)CC3(CC3)C2)ccc1S(N)(=O)=O [Example 53]
5. Cc1noc(C)c1C(=O)N1CCN(c2ncnc3[nH]ccc23)CC2(CC2)C1 [Example 170]

[reply]
1. 100 to 1000 nM
2. > 1000 nM
3. 100 to 1000 nM
4. > 1000 nM
5. > 1000 nM

# batch: return EC50 for each of the 6 compounds below
1. Cc1cncc(C(=O)N2CCN(c3ncnc4[nH]ccc34)CC3(CC3)C2)n1 [Example 169]
2. O=C(c1ccc(O)nc1)N1CCCN(c2ncnc3[nH]ccc23)CC12CC2 [Example 132]
3. O=C(Cc1ccc(Br)cc1)N1CCN(c2ncnc3[nH]ccc23)CC2(CC2)C1 [Example 264]
4. NS(=O)(=O)c1csc(C(=O)N2CCN(c3ncnc4[nH]ccc34)CC3(CC3)C2)c1 [Example 27]
5. O=C(c1cnsn1)N1CCCN(c2ncnc3[nH]ccc23)CC12CC2 [Example 203]
6. O=C(c1ccc(Cl)cc1)N1CCCN(c2ncnc3[nH]ccc23)CC12CC2 [Example 180]

[reply]
1. > 1000 nM
2. 100 to 1000 nM
3. < 100 nM
4. < 100 nM
5. 100 to 1000 nM
6. 100 to 1000 nM

Need EC50 for each of these compounds.
1. O=C(Cc1cscn1)N1CCN(c2ncnc3[nH]ccc23)CC2(CC2)C1 [Example 88]
2. O=C(c1ccno1)N1CCCN(c2ncnc3[nH]ccc23)CC12CC2 [Example 181]
3. Nc1nonc1C(=O)N1CCCN(c2ncnc3[nH]ccc23)CC12CC2 [Example 256]
4. O=C(c1cncc(F)c1)N1CCN(c2ncnc3[nH]ccc23)CC2(CC2)C1 [Example 213]

[reply]
100 to 1000 nM
100 to 1000 nM
< 100 nM
> 1000 nM

Each of the following entries comes with a recorded value; kindly state EC50 for each.
1. Cc1nnsc1C(=O)N1CCN(c2ncnc3[nH]ccc23)CC2(CC2)C1 [Example 146]
2. O=C(c1cscn1)N1CCN(c2ncnc3[nH]ccc23)CC2(CC2)C1 [Example 216]
3. O=C(c1cncs1)N1CCCN(c2ncnc3[nH]ccc23)CC12CC2 [Example 240]
4. Cc1noc(C)c1CC(=O)N1CCN(c2ncnc3[nH]ccc23)CC2(CC2)C1 [Example 249]
5. N#CC1(C(=O)N2CCN(c3ncnc4[nH]ccc34)CC3(CC3)C2)CCOCC1 [Example 41]

[reply]
1. > 1000 nM
2. 100 to 1000 nM
3. 100 to 1000 nM
4. > 1000 nM
5. 100 to 1000 nM

// each listed compound needs a value for EC50
1. N#CC1(C(=O)N2CCN(c3ncnc4[nH]ccc34)CCC23CC3)CC1 [Example 44]
2. Cc1nonc1CC(=O)N1CCN(c2ncnc3[nH]ccc23)CC2(CC2)C1 [Example 251]
3. Cc1noc(C)c1C(=O)N1CCCN(c2ncnc3[nH]ccc23)CC12CC2 [Example 199]

[reply]
1. > 1000 nM
2. 100 to 1000 nM
3. > 1000 nM

* * *

# System: JAK2 (Homo sapiens)
# Construct: All four purified enzymes contain only the catalytic domain; His (N)
# Sequence (O60674 849-1124 limits assumed): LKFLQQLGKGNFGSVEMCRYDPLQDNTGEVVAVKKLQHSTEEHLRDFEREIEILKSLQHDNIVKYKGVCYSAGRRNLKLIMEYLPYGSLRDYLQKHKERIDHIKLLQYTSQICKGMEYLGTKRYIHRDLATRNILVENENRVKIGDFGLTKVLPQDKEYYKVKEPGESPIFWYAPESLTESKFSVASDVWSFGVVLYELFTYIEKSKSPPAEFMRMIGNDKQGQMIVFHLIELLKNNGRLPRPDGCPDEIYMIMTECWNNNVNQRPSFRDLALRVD
# Experimental protocol: JAK2 kinase assay (HTRF, inhibition of phosphorylation of a synthetic peptide)
# Test settings: catalytic domain, His-tag; 4 μM ATP (Km); read-out: JAK2 kinase inhibitory activity (EC50)
# Protocol: JAK1, JAK2, JAK3 and TYK2 Kinase Assays: Human baculovirus-expressed JAK1, 2, 3 and TYK2 were purchased from Carna Biosciences, Inc. All four purified enzymes contain only the catalytic domain. […] Inhibition of phosphorylation of a synthetic peptide was measured in an HTRF-based assay using the TK substrate-Biotin from the CisbioHTRFKinEASE TK kit. […] The HTRF signal is read using an Envision plate reader.
pEC50: −log10 of the molar value.
Hi there, I'd appreciate the recorded pEC50 for every entry that follows.

NS(=O)(=O)c1ccc(CC(=O)N2CCN(c3ncnc4[nH]ccc34)CC3(CC3)C2)cc1; > 7.00
O=C(c1ccsn1)N1CCN(c2ncnc3[nH]ccc23)CC2(CC2)C1; 6.00 to 7.00
N#Cc1ccc(C(=O)N2CCN(c3ncnc4[nH]ccc34)CC3(CC3)C2)cc1; 6.00 to 7.00
Cc1nnsc1C(=O)N1CCCN(c2ncnc3[nH]ccc23)CC12CC2; 6.00 to 7.00
Cc1ccc(S(=O)(=O)N2CCN(c3ncnc4[nH]ccc34)CC3(CC3)C2)cc1; 6.00 to 7.00

Batch request: pEC50 per item, same order as input.
1. Cc1cc(C(=O)N2CCN(c3ncnc4[nH]ccc34)CC3(CC3)C2)ccc1S(N)(=O)=O
2. O=C(Cc1nnn[nH]1)N1CCN(c2ncnc3[nH]ccc23)CC2(CC2)C1
3. O=C(c1ccc(Cl)cc1)N1CCN(c2ncnc3[nH]ccc23)CC2(CC2)C1
4. O=C(c1ccccc1Cl)N1CCN(c2ncnc3[nH]ccc23)CC2(CC2)C1
5. COc1csc(C(=O)N2CCN(c3ncnc4[nH]ccc34)CC3(CC3)C2)c1
6. Cc1cncc(C(=O)N2CCN(c3ncnc4[nH]ccc34)CC3(CC3)C2)n1
7. Cc1ncccc1C(=O)N1CCCN(c2ncnc3[nH]ccc23)CC12CC2
8. Cc1[nH]c(C(=O)N2CCCN(c3ncnc4[nH]ccc34)CC23CC3)cc1C#N

[reply]
["6.00 to 7.00", "> 7.00", "> 7.00", "6.00 to 7.00", "6.00 to 7.00", "6.00 to 7.00", "6.00 to 7.00", "> 7.00"]

Count: 6. Required value per item: pEC50.
1. N#Cc1ccc(CC(=O)N2CCCN(c3ncnc4[nH]ccc34)CC23CC3)cc1
2. c1ccc(CN2CCCN(c3ncnc4[nH]ccc34)CC23CC3)cc1
3. CN(C)c1ccc(CC(=O)N2CCN(c3ncnc4[nH]ccc34)CC3(CC3)C2)cc1
4. O=C(c1ccncc1)N1CCCN(c2ncnc3[nH]ccc23)CC12CC2
5. N#CCOc1cccc(C(=O)N2CCN(c3ncnc4[nH]ccc34)CC3(CC3)C2)c1
6. O=C(CN1C(=O)CSC1=O)N1CCN(c2ncnc3[nH]ccc23)CC2(CC2)C1

[reply]
["6.00 to 7.00", "6.00 to 7.00", "> 7.00", "6.00 to 7.00", "6.00 to 7.00", "> 7.00"]

Batch request: pEC50 per item, same order as input.
1. O=C(Cc1ccc(-c2nn[nH]n2)cc1)N1CCN(c2ncnc3[nH]ccc23)CC2(CC2)C1
2. O=C(Cc1ccccc1)N1CCN(c2ncnc3[nH]ccc23)CC2(CC2)C1
3. CC1CN(c2ncnc3[nH]ccc23)CC2(CC2)CN1C(=O)Cc1ccc(C#N)cc1 (stereo not shown)
4. N#Cc1ccc(C(=O)C(=O)N2CCN(c3ncnc4[nH]ccc34)CC3(CC3)C2)cc1

[reply]
> 7.00
> 7.00
< 6.00
> 7.00

Fill in pEC50 for each of the 3 compounds listed.
1. Cc1cc(C(=O)N2CCN(c3ncnc4[nH]ccc34)CC3(CC3)C2)no1
2. N#Cc1ccc(CCC(=O)N2CCN(c3ncnc4[nH]ccc34)CC3(CC3)C2)cc1
3. c1nc(N2CCNCC3(CC3)C2)c2cc[nH]c2n1

[reply]
["6.00 to 7.00", "> 7.00", "< 6.00"]

Hey, quick one: what's pEC50 for each of these?
1. Cc1ccc(CC(=O)N2CCN(c3ncnc4[nH]ccc34)CC3(CC3)C2)cc1
2. Cc1cc(C(=O)N2CCN(c3ncnc4[nH]ccc34)CC3(CC3)C2)[nH]n1
3. O=C(Cc1cscn1)N1CCN(c2ncnc3[nH]ccc23)CC2(CC2)C1
4. Cc1cnccc1C(=O)N1CCCN(c2ncnc3[nH]ccc23)CC12CC2
5. O=C1CCC(=O)N1CC(=O)N1CCCN(c2ncnc3[nH]ccc23)CC12CC2
6. CC(C(=O)N1CCN(c2ncnc3[nH]ccc23)CC2(CC2)C1)c1ccccc1 (stereo not shown)
7. Cc1noc(C)c1C(=O)N1CCN(c2ncnc3[nH]ccc23)CC2(CC2)C1
8. Cc1cnc(C(=O)N2CCN(c3ncnc4[nH]ccc34)CC3(CC3)C2)cn1

[reply]
["> 7.00", "6.00 to 7.00", "6.00 to 7.00", "6.00 to 7.00", "6.00 to 7.00", "> 7.00", "< 6.00", "< 6.00"]
